# TARGET_DESC: UniProt:P14416
# ASSAY_CONDITIONS: HEK-293T, at 1e-07 to 100 µM
# Description: Agonist activity at human D2S receptor expressed in HEK293T cell membranes coexpressing Galphao1 assessed as induction of nucleotide exchange at 0.1 pM to 100 uM preincubated for 30 mins followed by addition of [35S]GTPgammaS measured after 30 mins by [35S]GTPgammaS binding assay relative to quinpirole
ENDPOINT_NAME: Emax (%)
Reply numerically in %, unit not repeated.

Worked cases, Emax given:
O=C1CCc2ccc(OCCCCN3CCCN(c4ccc(O)c5[nH]c(=O)ccc45)CC3)cc2N1; 55
O=C1CCc2ccc(OCCCCN3CCCN(c4ccc(O)c5c4OCC(=O)N5)CC3)cc2N1; 26
O=c1ccc2c(N3CCCN(CCCCOc4ccn5nccc5c4)CC3)ccc(O)c2[nH]1; 56
CCCN(CCC)CCc1cccc2c1CC(=O)N2 [ROPINIROLE]; 92
CCCN(CCc1cccs1)[C@H]1CCc2c(O)cccc2C1 [ROTIGOTINE]; 91

# context switch: different compound, same Emax
Query (compound): CCCN[C@H]1CCc2nc(N)sc2C1 ; field requested: Emax
102

###

# TARGET_DESC: D(2) dopamine receptor (Homo sapiens, UniProt P14416)
# Sequence (P14416 whole entry): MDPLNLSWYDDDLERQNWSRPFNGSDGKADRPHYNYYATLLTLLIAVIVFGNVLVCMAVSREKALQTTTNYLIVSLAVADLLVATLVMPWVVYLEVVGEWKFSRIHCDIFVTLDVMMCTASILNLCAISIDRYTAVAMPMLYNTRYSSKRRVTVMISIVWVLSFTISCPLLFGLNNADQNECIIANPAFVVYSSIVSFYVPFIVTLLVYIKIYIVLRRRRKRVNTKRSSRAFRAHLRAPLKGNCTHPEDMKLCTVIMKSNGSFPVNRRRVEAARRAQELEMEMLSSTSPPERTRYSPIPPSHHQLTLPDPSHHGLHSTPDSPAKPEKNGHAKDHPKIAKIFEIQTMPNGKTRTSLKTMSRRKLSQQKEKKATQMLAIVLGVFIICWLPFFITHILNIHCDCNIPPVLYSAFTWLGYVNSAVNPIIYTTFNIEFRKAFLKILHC
# Format: cell-based, HEK-293T
# Description: Partial agonist activity at human D2SR expressed in HEK293T cells co-expressing (EA)beta-arrestin2 and GRK2 assessed as induction of beta-arrestin2 recruitment after 5 hrs by chemiluminescence assay
ENDPOINT_NAME: pEC50
Scale explanation: pEC50 corresponds to minus log10 of a concentration expressed in moles per litre.

CCCN(CCC)CCc1cccc2c1CC(=O)N2 [ROPINIROLE]; 7.52
O=C1CCc2ccc(OCCCCN3CCCN(c4ccc(O)c5[nH]c(=O)ccc45)CC3)cc2N1; 6.70
O=c1ccc2c(N3CCCN(CCCCOc4ccn5nccc5c4)CC3)ccc(O)c2[nH]1; 6.60
O=C1CCc2ccc(OCCCCN3CCCN(c4ccc(O)c5c4OCC(=O)N5)CC3)cc2N1; 6.20

Param item = CCCN(CCc1cccs1)[C@H]1CCc2c(O)cccc2C1 [ROTIGOTINE] ; retrieve measured pEC50.
8.36

Would you kindly share the measured pEC50 for O=C1CCc2ccc(OCCCCN3CCCN(c4ccc(O)c5oc(=O)ccc45)CC3)cc2N1 ?
6.89

###

# TARGET_DESC: 5-hydroxytryptamine receptor 2A (Homo sapiens, UniProt P28223)
# Sequence (P28223 whole entry): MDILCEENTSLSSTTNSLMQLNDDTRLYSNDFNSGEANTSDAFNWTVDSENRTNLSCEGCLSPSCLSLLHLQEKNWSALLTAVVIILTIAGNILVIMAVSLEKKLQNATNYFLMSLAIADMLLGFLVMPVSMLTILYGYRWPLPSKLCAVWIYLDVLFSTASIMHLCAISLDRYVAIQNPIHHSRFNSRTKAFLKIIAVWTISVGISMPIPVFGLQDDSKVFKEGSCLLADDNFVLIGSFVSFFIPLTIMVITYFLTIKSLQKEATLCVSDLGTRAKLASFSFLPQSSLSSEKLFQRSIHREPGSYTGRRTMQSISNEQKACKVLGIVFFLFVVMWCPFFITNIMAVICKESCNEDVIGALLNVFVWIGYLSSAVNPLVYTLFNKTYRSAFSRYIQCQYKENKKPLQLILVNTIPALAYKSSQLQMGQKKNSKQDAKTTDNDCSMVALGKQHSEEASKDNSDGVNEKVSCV
The label 1.0 is reserved for Ki strictly under 3000 nM; 0.0 covers values equal to or above it.

Study these solved cases before continuing.
O=c1ccc2c(N3CCN(CCCCOc4ccn5nccc5c4)CC3)ccc(O)c2[nH]1; 0.0
O=C1CCc2ccc(OCCCCN3CCCN(c4ccc(O)c5oc(=O)ccc45)CC3)cc2N1; 1.0

Is 3000 nM strictly greater than the compound's reported Ki? compound: O=C1CCc2ccc(OCCCCN3CCN(c4ccc(O)c5c4OCC(=O)N5)CC3)cc2N1
1.0

Lab log: compare recorded Ki with 3000 nM; is it strictly lower for CCCCn1cc(CCCOc2ccc(C(=O)NCCCN3CCCN(c4ccc(O)c5[nH]c(=O)ccc45)CC3)cc2OC)nn1 ?
0.0

Check if Ki falls below 3000 nM for O=C1CCc2ccc(OCCCCN3CCN(c4ccc(O)c5oc(=O)ccc45)CC3)cc2N1 .
0.0

Ki strictly < 3000 nM for this compound? O=C1CCc2ccc(OCCCCN3CCCN(c4ccc(O)c5[nH]c(=O)ccc45)CC3)cc2N1
0.0

Lab note: Ki threshold 3000 nM. Does this compound come in strictly under it? Oc1ccc(N2CCN(CCCCOc3ccn4nccc4c3)CC2)c2c1OCCO2
1.0

Please let me know if O=C1CCc2ccc(OCCCCN3CCN(c4ccc(O)c5c4OCCO5)CC3)cc2N1 shows Ki below 3000 nM.
1.0

Hello, is Ki of the following compound strictly smaller than 3000 nM? O=c1ccc2c(N3CCN(CCCCOc4ccn5nccc5c4)CC3)ccc(O)c2o1
1.0

###

Listed here: items and their measured EC50.
# TARGET_DESC: UniProtKB P14416
# Format: functional, cell-based, HEK-293T
# Description: Agonist activity at human D2S receptor expressed in HEK293T cell membranes coexpressing Galphao1 assessed as induction of nucleotide exchange preincubated for 30 mins followed by addition of [35S]GTPgammaS measured after 30 mins by [35S]GTPgammaS binding assay
Use nM as the unit, but write only the number.

O=C1CCc2ccc(OCCCCN3CCCN(c4ccc(O)c5c4OCC(=O)N5)CC3)cc2N1; 78
O=C1CCc2ccc(OCCCCN3CCCN(c4ccc(O)c5[nH]c(=O)ccc45)CC3)cc2N1; 67
O=c1ccc2c(N3CCCN(CCCCOc4ccn5nccc5c4)CC3)ccc(O)c2[nH]1; 90
CCCN(CCC)CCc1cccc2c1CC(=O)N2; 330

Moving on to another molecule below.
Value wanted: EC50 (UniProtKB P14416) of entry CCCN(CCc1cccs1)[C@H]1CCc2c(O)cccc2C1
3.2

###

D(4) dopamine receptor (Homo sapiens): recorded pKi for assorted molecules
Sequence (P21917 whole entry): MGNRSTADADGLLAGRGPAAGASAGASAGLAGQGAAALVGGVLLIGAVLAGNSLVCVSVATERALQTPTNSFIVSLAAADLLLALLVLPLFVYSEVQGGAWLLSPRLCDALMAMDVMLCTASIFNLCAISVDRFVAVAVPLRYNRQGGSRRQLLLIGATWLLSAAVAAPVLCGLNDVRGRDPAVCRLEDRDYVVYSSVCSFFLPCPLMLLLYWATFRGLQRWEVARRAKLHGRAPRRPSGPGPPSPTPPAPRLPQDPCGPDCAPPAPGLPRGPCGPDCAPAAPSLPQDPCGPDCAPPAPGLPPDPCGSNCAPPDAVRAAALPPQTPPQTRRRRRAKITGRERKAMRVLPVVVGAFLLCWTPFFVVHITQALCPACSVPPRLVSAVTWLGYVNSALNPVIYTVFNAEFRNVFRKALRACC
Quick note: pKi values are minus log10 of concentrations in mol/L.

O=c1ccc2c(N3CCCN(CCCCOc4ccn5nccc5c4)CC3)ccc(O)c2[nH]1; 6.72
O=C1CCc2ccc(OCCCCN3CCN(c4ccc(O)c5ncccc45)CC3)cc2N1; 7.03
O=C1CCc2ccc(OCCCCN3CCCN(c4ccc(O)c5c4OCC(=O)N5)CC3)cc2N1; 7.22
O=C1COc2c(N3CCN(CCCCOc4ccn5nccc5c4)CC3)ccc(O)c2N1; 8.32
O=C1CCc2ccc(OCCCCN3CCN(c4ccc(O)c5c4OCC(=O)N5)CC3)cc2N1; 8.08
O=C1CCc2ccc(OCCCCN3CCN(c4ccc(O)c5[nH]c(=O)ccc45)CC3)cc2N1; 7.18

// moving on: another record for pKi
Quick check: pKi of O=C1CCc2ccc(OCCCCN3CCN(c4ccc(O)c5oc(=O)ccc45)CC3)cc2N1 ?
6.06

###

List of pKi values.
# TARGET_DESC: D(1B) dopamine receptor (Homo sapiens, UniProt P21918)
# Sequence (P21918 whole entry): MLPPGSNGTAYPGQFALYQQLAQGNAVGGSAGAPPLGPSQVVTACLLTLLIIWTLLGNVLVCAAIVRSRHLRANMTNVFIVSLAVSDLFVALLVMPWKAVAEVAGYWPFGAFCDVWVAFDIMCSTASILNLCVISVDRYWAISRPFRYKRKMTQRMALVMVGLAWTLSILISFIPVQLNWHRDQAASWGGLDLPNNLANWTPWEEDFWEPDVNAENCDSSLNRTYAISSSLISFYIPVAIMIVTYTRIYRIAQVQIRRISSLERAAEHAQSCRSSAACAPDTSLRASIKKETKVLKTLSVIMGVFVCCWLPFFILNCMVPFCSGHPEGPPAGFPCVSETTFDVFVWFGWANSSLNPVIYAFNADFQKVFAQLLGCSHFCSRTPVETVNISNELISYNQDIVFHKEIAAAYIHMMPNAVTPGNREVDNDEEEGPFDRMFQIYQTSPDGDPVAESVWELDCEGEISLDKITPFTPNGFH
Scale explanation: pKi corresponds to minus log10 of a concentration expressed in moles per litre.

O=C1COc2c(N3CCN(CCCCOc4ccn5nccc5c4)CC3)ccc(O)c2N1; 4.80

So what's the measured pKi for this one? O=C1CCc2ccc(OCCCCN3CCN(c4ccc(O)c5[nH]c(=O)ccc45)CC3)cc2N1
5.03

Entry O=C1CCc2ccc(OCCCCN3CCN(c4ccc(O)c5c4OCC(=O)N5)CC3)cc2N1 has what pKi?
5.38

###

# TARGET_DESC: D(2) dopamine receptor (Homo sapiens)
# ASSAY_NAME: biochemical
# Type: cell-based
# Description: Displacement of [3H]spiperone from human D2LR expressed in CHO cell membranes by radioligand binding assay
Listed below: Ki values for each entry.
I only need the number, in nM, no unit after it.

Worked cases, answers included:
O=C1CCc2ccc(OCCCCN3CCCN(c4ccc(O)c5oc(=O)ccc45)CC3)cc2N1; 100
CCCCn1cc(CCCOc2ccc(C(=O)NCCCCN3CCCN(c4ccc(O)c5[nH]c(=O)ccc45)CC3)cc2OC)nn1; 200
O=C1COc2c(N3CCN(CCCCOc4ccn5nccc5c4)CC3)ccc(O)c2N1; 2

Quick one: Ki of O=C1CCc2ccc(OCCCCN3CCN(c4ccc(O)c5c4OCCO5)CC3)cc2N1 ?
2.9

GET /values?readout=Ki&item= O=C1CCc2ccc(OCCCCN3CCN(c4ccc(O)c5[nH]c(=O)ccc45)CC3)cc2N1
0.89

I am curious: what Ki value has been reported for O=C1CCc2ccc(OCCCCN3CCN(c4ccc(O)c5c4OCC(=O)N5)CC3)cc2N1 ?
0.87

Find the recorded Ki belonging to O=C1CCc2ccc(OCCCCN3CCCN(c4ccc(O)c5[nH]c(=O)ccc45)CC3)cc2N1 and report it.
1.6

###

# ASSAY_NAME: Intrinsic clearance in Sprague-Dawley rat liver microsomes assessed per mg protein at 20 uM by HPLC analysis
# Assay type: ADME, microsome
# ASSAY_CONDITIONS: read-out: CLH
ENDPOINT_NAME: microsomal CLint at 20 µM (µL/min/mg)
Answer with a number only, understood to be in µL/min/mg.

Recorded results for 2 compounds are shown here.
CCCN(CCc1cccs1)[C@H]1CCc2c(O)cccc2C1; 240
O=C1CCc2ccc(OCCCCN3CCCN(c4ccc(O)c5[nH]c(=O)ccc45)CC3)cc2N1; 11

Next item in the queue.
Can you look up the measured microsomal CLint at 20 µM of O=c1ccc2c(N3CCCN(CCCCOc4ccn5nccc5c4)CC3)ccc(O)c2[nH]1 for me?
27

###

# TARGET_DESC: Voltage-gated inwardly rectifying potassium channel KCNH2 (Homo sapiens, UniProt Q12809)
# Sequence (Q12809 whole entry): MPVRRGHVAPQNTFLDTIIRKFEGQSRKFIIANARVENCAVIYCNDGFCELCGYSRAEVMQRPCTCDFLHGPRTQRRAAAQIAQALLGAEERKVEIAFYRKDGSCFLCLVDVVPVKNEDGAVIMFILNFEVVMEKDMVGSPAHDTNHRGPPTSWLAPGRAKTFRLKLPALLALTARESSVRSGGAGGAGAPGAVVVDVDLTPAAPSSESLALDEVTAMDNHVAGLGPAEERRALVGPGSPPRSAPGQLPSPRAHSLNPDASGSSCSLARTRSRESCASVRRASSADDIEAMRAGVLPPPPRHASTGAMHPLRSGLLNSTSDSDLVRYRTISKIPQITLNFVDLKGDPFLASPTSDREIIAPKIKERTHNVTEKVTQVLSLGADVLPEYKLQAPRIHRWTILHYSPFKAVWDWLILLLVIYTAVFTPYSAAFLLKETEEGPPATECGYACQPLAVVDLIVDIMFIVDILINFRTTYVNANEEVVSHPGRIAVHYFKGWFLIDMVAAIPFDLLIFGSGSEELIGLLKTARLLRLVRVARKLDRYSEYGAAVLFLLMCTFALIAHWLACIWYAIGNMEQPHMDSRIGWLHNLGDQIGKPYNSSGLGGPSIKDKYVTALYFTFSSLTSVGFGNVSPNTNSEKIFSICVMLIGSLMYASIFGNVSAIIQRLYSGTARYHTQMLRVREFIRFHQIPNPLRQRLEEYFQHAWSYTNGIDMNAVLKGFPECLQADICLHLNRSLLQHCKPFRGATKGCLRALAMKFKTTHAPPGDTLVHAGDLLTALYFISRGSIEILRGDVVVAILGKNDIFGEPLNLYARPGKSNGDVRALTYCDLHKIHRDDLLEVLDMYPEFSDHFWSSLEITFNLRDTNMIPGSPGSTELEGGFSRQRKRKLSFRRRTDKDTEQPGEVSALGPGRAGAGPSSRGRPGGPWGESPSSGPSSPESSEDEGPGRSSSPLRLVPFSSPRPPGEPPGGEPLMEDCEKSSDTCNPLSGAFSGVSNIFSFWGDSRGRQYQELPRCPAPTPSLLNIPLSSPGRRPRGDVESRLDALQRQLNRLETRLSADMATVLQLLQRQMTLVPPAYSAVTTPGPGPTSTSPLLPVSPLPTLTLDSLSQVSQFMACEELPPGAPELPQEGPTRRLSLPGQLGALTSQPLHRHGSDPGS
# ASSAY_NAME: Inhibition of human ERG expressed in CHO cells assessed as reduction in tail current at -40 holding potential by automated patch-clamp assay
ENDPOINT_NAME: IC50 (µM)
Return type: number; implicit unit µM.

Observed IC50 on Voltage-gated inwardly rectifying potassium channel KCNH2 (Homo sapiens, UniProt Q12809) for O=C1CCc2ccc(OCCCCN3CCCN(c4ccc(O)c5[nH]c(=O)ccc45)CC3)cc2N1 , please.
19.7

###

# TARGET_DESC: D(2) dopamine receptor (Homo sapiens)
# ASSAY_NAME: biochemical
# Assay type: cell-based
Overview of reported Ki across a group of compounds:
The answer is to be given in nM; state only the numeric part.

Recorded Ki, per entry:
O=c1ccc2c(N3CCCN(CCCCOc4ccn5nccc5c4)CC3)ccc(O)c2[nH]1; 78
Oc1ccc(N2CCN(CCCCOc3ccn4nccc4c3)CC2)c2c1OCCO2; 110
O=C1CCc2ccc(OCCCCN3CCN(c4ccc(O)c5ncccc45)CC3)cc2N1; 3.4

Lab note: need Ki with D(2) dopamine receptor (Homo sapiens) for entry Oc1ccc(N2CCN(CCCCOc3ccn4nccc4c3)CC2)c2cccnc12 , please look it up.
33

Which measured Ki belongs to O=c1ccc2c(N3CCN(CCCCOc4ccn5nccc5c4)CC3)ccc(O)c2o1 , tested on D(2) dopamine receptor (Homo sapiens)?
40
